Origin of the recorded values: PubChem BioAssay (NCI)

assay: NCI Yeast Anticancer Drug Screen. Data for the rad14 strain (AID 159);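 note: 0% = growth of vehicle-treated control cultures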; conditions: S. cerevisiae rad14 strain growth inhibition; at 100.0 µM; stronger effect = higher value
About 79,000 compounds went through this panel and 15% of them were active in at least one assay; those are over-represented in the sample as a whole.
Recorded growth inhibition values for a group of molecules are listed next.
All answers are understood in %, so give the number only.

CC[N+]1(C)CCC(O)(/C=C/c2ccc(Cl)c(Cl)c2)C(C(=O)/C=C/c2ccc(Cl)c(Cl)c2)C1 (stereo unspecified) | 99
O=C(O)NCC1CCCCC1 (tested in a mixture with another compound) | 61
CCC(C)/C(C)=N/NC(N)=O (stereo unspecified) | 0
CCOC(=O)C1=C(C)NC(C)=C(C(=O)OCC)C1c1ccc(Cl)cc1 | 93
Cc1cccc[c]1[Sn]([Cl])([S]/C(C#N)=N/N=C/c1ccc(N(C)C)cc1)[c]1ccccc1C | 93
Cc1c(N=Nc2ccc(Cl)cc2)c(C)n(C2OC(CO)C(O)C(O)C2O)c(=S)c1C#N (stereo unspecified) | 71

growth inhibition for COc1cc(NCCCCCNC(C)C)c2ncccc2c1Cl ?
24

growth inhibition for O=C1C(Br)=CC(Br)(Br)C=C1Br ?
98

growth inhibition for O=Cn1c2ccccc2c2ccccc21 ?
25

growth inhibition for c1ccc(N/N=C2\CC(c3ccccc3)Oc3ccccc32)cc1 (stereo unspecified) ?
72

growth inhibition for CCOC(=O)/C(O)=C(/C=N/C(=S)Nc1c(CC)cccc1CC)C(=O)OCC ?
38

growth inhibition for [Cl][Pt+2][Cl].[NH-]CC1(C[NH-])CCCCC1 ?
98

growth inhibition for O=C(CSS(=O)(=O)O)c1ccccc1 ?
19

growth inhibition for c1cncc(C(Nc2cccc3cccnc23)Nc2cccc3cccnc23)c1 ?
47

###

Recorded growth inhibition values for a group of molecules are listed next.
assay: NCI Yeast Anticancer Drug Screen. Data for the cln2 rad14 strain (AID 165);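 note: 0% = growth equal to vehicle treated cultures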; conditions: S. cerevisiae cln2 rad14 strain, at 50.0 µM, stronger effect = higher value
The panel holds about 79,000 compounds, 15% with a hit somewhere; the sample as a whole holds those more often. The source made the active and inactive calls. Rule as the data show it: active = growth inhibition above about 70%; inactive = the rest.

Example cases with answers are listed next.
O=C(Nc1ccn(C2CC(O)C(COC(c3ccccc3)(c3ccccc3)c3ccccc3)O2)c(=O)n1)c1ccccc1 (configuration not stated) | 92.8% (active)
CCOC(=O)/C=C1\CCCn2c1ncc(C(=O)OCC)c2=O | 55.7% (inactive)
Cc1ccc(Cl)c2c(=O)c3ccccc3[nH]c12 | 11.2% (inactive)
NNc1nnc(-c2ccccc2)nc1Cc1ccccc1 | 86% (active)
Cc1ccccc1C1=C(CC(=O)O)c2ccccc2CC1C (configuration not stated) | 99.4% (active)

growth inhibition for CCN(CC)c1cccc(Nc2nc3ccccc3s2)c1 ?
-7.1% (inactive)

growth inhibition for COc1cc(C(C)C(C(=O)O)C(=O)C(=O)O)cc(OC)c1OC (configuration not stated) ?
-22.4% (inactive)

growth inhibition for CC(=O)O/N=C/c1c2ccccc2cc2ccccc12 ?
-47.8% (inactive)

growth inhibition for COc1ccc(C(=O)OCCc2ccccc2)cc1 ?
-10.5% (inactive)

growth inhibition for Cc1ccc2oc(-c3cccc(N)c3)nc2c1 ?
27.5% (inactive)

growth inhibition for O=C1c2ccccc2C2CCC1c1ccccc12 (configuration not stated) ?
18.3% (inactive)

growth inhibition for Cc1ccc2nc(N/N=C/c3ccc(C)s3)cc(C)c2c1 ?
90.8% (active)
